Target or system: Nitric oxide synthase, inducible (Mus musculus); further: in other assays of this panel Not Active means under 50% inhibition at 10 µM;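 further: inhibition of iNOS enzyme activity measured with L-arginine as substrate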
Sequence (P29477 whole entry): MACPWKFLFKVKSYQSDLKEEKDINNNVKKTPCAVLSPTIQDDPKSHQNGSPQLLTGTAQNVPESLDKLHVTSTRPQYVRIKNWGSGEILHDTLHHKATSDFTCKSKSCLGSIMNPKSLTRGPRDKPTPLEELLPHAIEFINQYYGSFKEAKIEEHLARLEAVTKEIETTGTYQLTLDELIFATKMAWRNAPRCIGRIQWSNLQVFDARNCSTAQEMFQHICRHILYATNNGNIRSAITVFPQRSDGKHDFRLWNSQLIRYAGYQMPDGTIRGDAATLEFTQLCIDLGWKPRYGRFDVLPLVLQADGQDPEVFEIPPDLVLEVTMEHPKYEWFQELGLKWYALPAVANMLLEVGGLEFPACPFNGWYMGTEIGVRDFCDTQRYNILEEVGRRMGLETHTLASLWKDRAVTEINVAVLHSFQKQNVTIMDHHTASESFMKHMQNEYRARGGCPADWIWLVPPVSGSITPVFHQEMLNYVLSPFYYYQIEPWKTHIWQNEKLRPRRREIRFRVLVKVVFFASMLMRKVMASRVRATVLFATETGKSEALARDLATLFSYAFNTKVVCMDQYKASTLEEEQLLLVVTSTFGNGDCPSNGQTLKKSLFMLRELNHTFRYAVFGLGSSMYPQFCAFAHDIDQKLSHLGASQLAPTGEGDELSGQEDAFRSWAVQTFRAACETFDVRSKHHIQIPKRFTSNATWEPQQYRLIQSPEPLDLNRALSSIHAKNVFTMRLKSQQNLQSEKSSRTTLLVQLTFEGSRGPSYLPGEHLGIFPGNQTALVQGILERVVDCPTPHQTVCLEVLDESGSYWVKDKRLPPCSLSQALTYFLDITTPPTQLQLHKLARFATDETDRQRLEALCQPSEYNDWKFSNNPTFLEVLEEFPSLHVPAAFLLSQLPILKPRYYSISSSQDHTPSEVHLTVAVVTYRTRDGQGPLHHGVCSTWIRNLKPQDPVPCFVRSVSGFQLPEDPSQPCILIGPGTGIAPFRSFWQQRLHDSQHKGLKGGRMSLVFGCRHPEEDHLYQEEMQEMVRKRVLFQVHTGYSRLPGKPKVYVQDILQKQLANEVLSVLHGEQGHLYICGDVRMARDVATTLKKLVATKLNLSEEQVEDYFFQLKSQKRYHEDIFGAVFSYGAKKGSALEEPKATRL
Parameters: species or system Escherichia coli
Attribute measured: IC50

Observe how each entry below is paired with its result.
NC(=O)C[S+]([O-])C(c1ccccc1)c1ccccc1 (centres undefined) [MODAFINIL]
Not Active
O=C(O)CCNC(=O)c1ccccc1 [BETAMIPRON]
Not Active
N=C(N)NC(=O)Cc1c(Cl)cccc1Cl [GUANFACINE]
Not Active
C[n+]1ccccc1/C=N/O.[Cl-] [PRALIDOXIME CHLORIDE]
Not Active

Give IC50 for each of the items listed below.
1. NCCCC(O)(P(=O)(O)O)P(=O)(O)O [ALENDRONIC ACID]
2. CC[C@@H](C(=O)[C@@H](C)[C@@H](O)[C@H](C)[C@@H]1O[C@@H]([C@@H](CC)C(=O)O)CC[C@@H]1C)[C@H]1O[C@]2(C=C[C@@H](O)[C@]3(CC[C@@](C)([C@H]4CC[C@](O)(CC)[C@H](C)O4)O3)O2)[C@H](C)C[C@@H]1C [SALINOMYCIN]
3. Clc1ccccc1CN1CCc2sccc2C1 [TICLOPIDINE]

["Not Active", "Not Active", "Not Active"]

Give IC50 for each of the items listed below.
1. C[C@]12C=CC(=O)C=C1CC[C@@H]1[C@@H]2[C@@H](O)C[C@@]2(C)[C@H]1CC[C@]2(O)C(=O)CO [PREDNISOLONE]
2. Cc1c(OCC(F)(F)F)ccnc1C[S+]([O-])c1nc2ccccc2[nH]1 (centres undefined) [LANSOPRAZOLE]
3. Cn1c(=O)c2nc[nH]c2n(C)c1=O.O [THEOPHYLLINE]
4. CN(C)CCOC(c1ccccc1)c1ccccc1 [DIPHENHYDRAMINE]
5. Nc1ccn([C@@H]2O[C@H](CO)[C@@H](O)C2(F)F)c(=O)n1 [GEMCITABINE]
6. Brc1c(NC2=NCCN2)ccc2nccnc12 [BRIMONIDINE]
7. CC(C)NCC(O)COc1cccc2[nH]ccc12 (centres undefined) [PINDOLOL]

["Not Active", "Not Active", "Not Active", "Not Active", "Not Active", "Not Active", "Not Active"]

Give IC50 for each of the items listed below.
1. NNc1nncc2ccccc12 [HYDRALAZINE]
2. CC(c1cc2ccccc2s1)N(O)C(N)=O (centres undefined) [ZILEUTON]
3. C#CC1(O)CC[C@H]2[C@@H]3CCC4=CC(=O)CC[C@@H]4[C@H]3CC[C@@]21CC (some centres undefined) [NORGESTREL]
4. COc1ccc2cc3[n+](cc2c1OC)CCc1cc2c(cc1-3)OCO2.[Cl-] [BERBERINE CHLORIDE]

1: Not Active; 2: Not Active; 3: Not Active; 4: Not Active

In one line, give reported IC50 of the entry CN[C@H]1CC[C@@H](c2ccc(Cl)c(Cl)c2)c2ccccc21 [SERTRALINE] . Not Active

###

Target or system: Cytochrome P450 2A6 (Homo sapiens, UniProt P11509); further: in other assays of this panel Not Active means under 50% inhibition at 10 µM
Sequence (P11509 whole entry): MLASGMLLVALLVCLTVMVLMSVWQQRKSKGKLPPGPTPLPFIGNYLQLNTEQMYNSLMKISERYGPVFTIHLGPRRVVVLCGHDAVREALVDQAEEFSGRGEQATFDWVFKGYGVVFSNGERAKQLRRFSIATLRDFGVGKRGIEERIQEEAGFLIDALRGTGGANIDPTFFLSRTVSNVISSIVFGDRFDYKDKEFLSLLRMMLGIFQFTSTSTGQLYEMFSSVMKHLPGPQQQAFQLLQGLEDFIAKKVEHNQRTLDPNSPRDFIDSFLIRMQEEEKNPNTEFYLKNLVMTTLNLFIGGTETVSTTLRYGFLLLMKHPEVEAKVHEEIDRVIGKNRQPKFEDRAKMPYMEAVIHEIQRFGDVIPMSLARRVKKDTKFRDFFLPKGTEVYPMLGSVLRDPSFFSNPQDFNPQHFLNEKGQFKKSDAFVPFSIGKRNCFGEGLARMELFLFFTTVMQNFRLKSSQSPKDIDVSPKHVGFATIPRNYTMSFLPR
Condition notes: bti-tn-5b1-4
Attribute measured: Ki

Observe how each entry below is paired with its result.
O=C/C=C/c1ccccc1
Not Active
COC1=C(OC)C(=O)C(CCCCCCCCCCO)=C(C)C1=O
Not Active
Cn1c(=O)c2[nH]cnc2n(C)c1=O.Cn1c(=O)c2[nH]cnc2n(C)c1=O.NCCN
Not Active
C=CCc1ccc(O)c(OC)c1
Not Active
C[n+]1ccc(-c2cc[n+](C)cc2)cc1.[Cl-].[Cl-] [PARAQUAT DICHLORIDE]
Not Active
O=c1cc(N2CCOCC2)oc2c(-c3ccccc3)cccc12
Not Active
O=C(O)CCNC(=O)c1ccccc1
Not Active
CNC1(c2ccccc2Cl)CCCCC1=O (stereo not drawn)
Not Active
C#CC1(O)CC[C@H]2[C@@H]3CCC4=CC(=O)CC[C@@H]4[C@H]3CC[C@@]21CC (stereo partly drawn)
Not Active
C#C[C@]1(OC(C)=O)CC[C@H]2[C@@H]3CCC4=C[C@@H](OC(C)=O)CC[C@@H]4[C@H]3CC[C@@]21C [ETHYNODIOL DIACETATE]
Not Active

Give Ki for each of the items listed below.
1. O=C1C(CC[S+]([O-])c2ccccc2)C(=O)N(c2ccccc2)N1c1ccccc1 (stereo not drawn)
2. Nc1ccn([C@@H]2O[C@H](CO)[C@@H](O)C2(F)F)c(=O)n1
3. O=C(c1ccccc1C(F)(F)F)N1CCC(Cc2ccccc2)CC1
4. C[C@@H](CO)NC(=O)[C@@H]1C=C2c3cccc4[nH]cc(c34)C[C@H]2N(C)C1

1: Not Active; 2: Not Active; 3: Not Active; 4: Not Active

Give Ki for each of the items listed below.
1. C[C@@H]1CC[C@@]2(OC1)O[C@H]1[C@@H](O)[C@H]3[C@@H]4CC[C@H]5C[C@@H](O[C@@H]6O[C@H](CO)[C@H](O[C@@H]7O[C@H](CO)C(O)[C@H](O[C@@H]8OC[C@@H](O)[C@H](O)[C@H]8O)[C@H]7O[C@@H]7O[C@H](CO)[C@H](O)[C@H](O[C@@H]8O[C@H](CO)[C@@H](O)[C@H](O)[C@H]8O)[C@H]7O)[C@H](O)[C@H]6O)[C@H](O)C[C@]5(C)[C@H]4CC[C@]3(C)[C@H]1[C@@H]2C (stereo partly drawn)
2. CN(C)[C@@H]1C(O)=C(C(N)=O)C(=O)[C@@]2(O)C(O)=C3C(=O)c4c(O)ccc(Cl)c4[C@@](C)(O)[C@H]3C[C@@H]12
3. Clc1ccccc1CN1CCc2sccc2C1
4. O=C(Nc1ccc(Br)cc1)c1cc(Br)cc(Br)c1O
5. CN1[C@@H]2CC[C@H]1C[C@@H](OC(=O)C(CO)c1ccccc1)C2 (stereo partly drawn)
6. NC(=O)N1C(=O)/C(=C(\O)c2cccs2)c2cc(Cl)ccc21
7. CCCOc1ccc(C(=O)OCCN(CC)CC)cc1N
8. CCCN(CCC)S(=O)(=O)c1ccc(C(=O)O)cc1

Not Active
Not Active
Not Active
Not Active
Not Active
Not Active
Not Active
Not Active

Give Ki for each of the items listed below.
1. CN[C@H]1CC[C@@H](c2ccc(Cl)c(Cl)c2)c2ccccc21
2. CC(=O)[C@H]1[C@H](C#N)C[C@H]2[C@@H]3CC=C4C[C@@H](O)CC[C@]4(C)[C@H]3CC[C@@]21C
3. Fc1ccc(C(c2ccc(F)cc2)N2CCN(C/C=C/c3ccccc3)CC2)cc1
4. CN(C)CC[C@@H](c1ccc(Cl)cc1)c1ccccn1

1. Not Active
2. Not Active
3. Not Active
4. Not Active
